Hey, just so you know, these numbers are from PubChem BioAssay (NCI).

- Tested on: NCI-H226 lung
- Assay: NCI tumour cell line growth inhibition, 48 h
Readout label: TGI

Consider the worked cases shown below.
O=C(N[C@@H](c1ccccc1)[C@@H](O)C(=O)OCc1ccc([N+](=O)[O-])cc1)c1ccccc1; > 100 µM
Cc1[nH]c(/C=C2\C(=O)Nc3ccccc32)c(C)c1CCC(=O)O; 42.6 µM
OCCCNc1nccc(-c2c(-c3ccc(F)cc3)nn3cc(C(F)(F)F)ccc23)n1; > 25 µM
CCOC(=O)/C=C(/C)Sc1cc(O)c2ccccc2c1O; 32.8 µM
COc1cc(N=Nc2cccc(S(=O)(=O)O)c2)ccc1N=Nc1ccc(/C=C/c2ccc(-n3on3-c3ccc(/C=C/c4ccc(N=Nc5ccc(N=Nc6cccc(S(=O)(=O)O)c6)cc5OC)cc4S(=O)(=O)O)c(S(=O)(=O)O)c3)cc2S(=O)(=O)O)c(S(=O)(=O)O)c1; > 100 µM
COC1(OC)CC2C(=O)N(Cc3ccccc3)C1C=C2S(=O)(=O)c1ccccc1 (stereo not drawn); 47.3 µM
COc1ccc(/C(Cl)=C(\C=O)c2ccc(OC)c(OC)c2)cc1; > 100 µM

Query compound follows.
Record Cc1c(/C=N/NC(=O)c2ccc(Cl)cc2)c(=O)n(-c2ccccc2)n1C / NCI-H226 lung, TGI recorded as > 100 µM

---

- Tested on: TK-10 renal
- Assay: NCI tumour cell line growth inhibition, 48 h; in the data active = GI50 below about 0.43 µM; inactive = the rest
Allowed answers: active, inactive

CSc1ccc2c(c1)C(=O)c1c-2n(CCCBr)c(=O)c2cc([N+](=O)[O-])ccc12; inactive
COc1c[c]([Hg][O]C(C)=O)c(OC)c(NC(=O)CC(C)=O)[c]1[Hg][O]C(C)=O; inactive
CCN1C(=O)N(CC)C2C1NN=c1s/c(=C3\C(=O)N(CC(C)(C)C)c4ccccc43)c(=O)n12 (stereo not given); inactive
CC(=O)Oc1ccccc1C(=O)Nc1ncc([N+](=O)[O-])s1; inactive

Ask | Could you check what this test reported for CCN(Cc1ccccc1C)c1ccc(CO)c(Cl)c1 ?
Reply | active

Ask | Could you check what this test reported for NC(=O)c1cc(S(=O)(=O)Nc2nnc(-c3ccccc3)c(-c3ccccc3)n2)c(SCc2ccccc2)cc1Cl ?
Reply | inactive

Ask | Could you check what this test reported for CCCCCOc1ccc(/C=N/Nc2cc(C)nc3ccc(Br)cc23)cc1 ?
Reply | inactive

Ask | Could you check what this test reported for COc1ccc(O)c(C(=O)c2ccc(C(=O)N[C@H]3CCCNC[C@@H]3NC(=O)c3ccncc3)cc2)c1F ?
Reply | inactive

Ask | Could you check what this test reported for N#Cc1c(N/N=C/c2ccc(Cl)cc2Cl)nc(N)nc1N1CCCC1 ?
Reply | inactive

Ask | Could you check what this test reported for O=C1NC(=O)/C(=C\c2ccccc2)C2=C1CCCC2 ?
Reply | inactive

---

- Tested on: HOP-92 NSCLC
- Assay: NCI tumour cell line growth inhibition, 48 h
Readout label: TGI

Consider the worked cases shown below.
COCC1(CO)C(=O)C2CCN1CC2 (stereo not given); 30 µM
c1ccc([P+](CC[P+](c2ccccc2)(c2ccccc2)c2ccccc2)(c2ccccc2)c2ccccc2)cc1; > 92.3 µM
[N-]=[N+]=Nc1cc(=O)[nH]nc1-c1ccccc1; > 100 µM
CN(C)c1ccc(/C=N\NC(=O)Nc2cccc3ccccc23)cc1; 59.5 µM
CCCN1CN(C(C(=O)N[C@@H]2C(=O)N3C2SC(C)(C)C3C(=O)O)c2ccc(O)cc2)CSC1=S (stereo not given in full); > 100 µM

Record Cc1cc(C)nc(NS(=O)(=O)c2ccc(NC(=O)c3cccc4c(Nc5ccc(S(N)(=O)=O)cc5)c5ccccc5nc34)cc2)n1 / HOP-92 NSCLC, TGI recorded as 61.1 µM

Record CCCCCC(=O)CCCCCCCC(O)CC(=O)OCC (stereo not given) / HOP-92 NSCLC, TGI recorded as > 100 µM

Record COC(=O)c1ccccc1Nc1nc(-c2cccs2)nc2cc(OC)c(OC)cc12 / HOP-92 NSCLC, TGI recorded as > 100 µM

Record Cc1cc(S(=O)(=O)O)c(NC(=O)C(=O)Cc2cc(=O)oc3cc(O)ccc23)cc1Cl / HOP-92 NSCLC, TGI recorded as > 100 µM

Record O=C1NC(=NCCc2cccc(Cl)c2)S/C1=C\c1ccc2ncccc2c1 / HOP-92 NSCLC, TGI recorded as > 25 µM
